IC50: recorded values
target: human Nav1.8/b3 (Homo sapiens, UniProt Q9Y5Y9); construct: expressed in transfected cells; host or cells: CHO; assay: Compound Profiling Human NaV1.8/β3 Cell Line—SyncroPatch384PE Assay (automated patch clamp, stably transfected CHO cells); assay type: cell-based; settings: P1 (IC50, resting state block), P1 measurement, resting state block; Nav1.8/b3 CHO cells, holding potential −120 mV; third set of compounds
Sequence (Q9Y5Y9 whole entry): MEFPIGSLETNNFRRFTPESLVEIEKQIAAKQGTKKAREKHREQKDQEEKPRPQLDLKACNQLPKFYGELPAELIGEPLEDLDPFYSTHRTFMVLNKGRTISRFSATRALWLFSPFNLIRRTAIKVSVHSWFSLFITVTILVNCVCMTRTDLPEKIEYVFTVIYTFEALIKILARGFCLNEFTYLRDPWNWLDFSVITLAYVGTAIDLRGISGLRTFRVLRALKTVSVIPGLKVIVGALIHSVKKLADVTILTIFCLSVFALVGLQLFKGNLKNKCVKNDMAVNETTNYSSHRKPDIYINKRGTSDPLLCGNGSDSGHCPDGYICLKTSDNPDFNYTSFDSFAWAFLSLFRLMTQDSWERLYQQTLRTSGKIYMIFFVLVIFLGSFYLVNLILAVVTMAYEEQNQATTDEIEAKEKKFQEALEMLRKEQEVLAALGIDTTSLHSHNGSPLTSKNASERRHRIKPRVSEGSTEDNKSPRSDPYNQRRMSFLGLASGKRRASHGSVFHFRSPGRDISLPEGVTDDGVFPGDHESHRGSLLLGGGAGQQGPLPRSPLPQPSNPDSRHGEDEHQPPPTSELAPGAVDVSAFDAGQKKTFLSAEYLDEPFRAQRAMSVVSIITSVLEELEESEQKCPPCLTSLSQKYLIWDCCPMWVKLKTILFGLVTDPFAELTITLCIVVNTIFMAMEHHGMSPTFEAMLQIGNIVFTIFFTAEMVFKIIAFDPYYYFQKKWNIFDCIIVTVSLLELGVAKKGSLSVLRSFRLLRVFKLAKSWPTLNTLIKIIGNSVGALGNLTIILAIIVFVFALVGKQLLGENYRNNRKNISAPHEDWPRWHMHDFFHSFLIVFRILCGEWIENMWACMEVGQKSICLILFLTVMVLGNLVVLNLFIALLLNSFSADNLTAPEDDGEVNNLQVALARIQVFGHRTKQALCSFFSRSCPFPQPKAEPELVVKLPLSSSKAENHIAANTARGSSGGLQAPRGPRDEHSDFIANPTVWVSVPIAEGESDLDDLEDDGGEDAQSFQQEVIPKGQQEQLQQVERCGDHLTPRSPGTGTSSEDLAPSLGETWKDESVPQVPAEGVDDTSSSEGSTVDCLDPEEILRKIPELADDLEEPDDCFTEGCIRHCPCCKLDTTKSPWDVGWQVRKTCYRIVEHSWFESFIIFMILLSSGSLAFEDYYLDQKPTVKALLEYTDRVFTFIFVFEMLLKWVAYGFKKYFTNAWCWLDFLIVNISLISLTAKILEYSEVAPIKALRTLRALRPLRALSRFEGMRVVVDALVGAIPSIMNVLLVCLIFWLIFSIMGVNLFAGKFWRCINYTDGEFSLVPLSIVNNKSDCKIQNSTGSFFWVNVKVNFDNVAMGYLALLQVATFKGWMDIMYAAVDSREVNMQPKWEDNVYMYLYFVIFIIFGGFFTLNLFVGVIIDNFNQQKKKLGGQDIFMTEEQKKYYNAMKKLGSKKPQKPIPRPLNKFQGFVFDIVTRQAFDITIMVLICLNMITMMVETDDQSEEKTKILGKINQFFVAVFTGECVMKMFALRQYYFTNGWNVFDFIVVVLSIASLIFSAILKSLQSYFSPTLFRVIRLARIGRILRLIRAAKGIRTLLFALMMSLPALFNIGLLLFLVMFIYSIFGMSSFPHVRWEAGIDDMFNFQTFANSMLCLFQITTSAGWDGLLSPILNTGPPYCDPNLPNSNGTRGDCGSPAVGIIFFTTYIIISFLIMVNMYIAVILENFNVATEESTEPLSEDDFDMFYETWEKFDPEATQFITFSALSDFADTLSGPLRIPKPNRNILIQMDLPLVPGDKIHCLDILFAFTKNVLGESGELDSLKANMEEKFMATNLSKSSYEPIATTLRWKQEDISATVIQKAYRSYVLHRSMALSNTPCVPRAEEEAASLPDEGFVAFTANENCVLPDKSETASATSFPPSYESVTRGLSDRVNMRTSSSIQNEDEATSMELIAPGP
Sequence (Q9NY72 23-215 partner): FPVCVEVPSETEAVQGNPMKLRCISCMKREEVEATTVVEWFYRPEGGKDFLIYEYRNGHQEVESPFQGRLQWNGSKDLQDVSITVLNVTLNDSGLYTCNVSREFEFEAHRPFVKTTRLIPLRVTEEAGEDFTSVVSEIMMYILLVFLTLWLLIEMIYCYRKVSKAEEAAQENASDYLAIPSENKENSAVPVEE

Compound	Measurement Target	IC50
Cc1nc(F)ccc1Oc1ncc(-c2ccc(C#N)cc2)c(C)c1C(=O)Nc1cccc([S@](C)(=N)=O)c1	human Nav1.8/b3 (Homo sapiens, UniProt Q9Y5Y9)	5 to 50 nM
COc1cc(C#N)ccc1Oc1ncc(-c2ccc(C(F)F)cc2)c(C)c1C(=O)Nc1ccnc([S@@](C)(=N)=O)c1 [Example 16C]	human Nav1.8/b3 (Homo sapiens, UniProt Q9Y5Y9)	> 200 nM
COc1c(Oc2cc(C(F)(F)F)nnc2C(=O)Nc2cccc(S(C)(=O)=O)c2)ccc(F)c1F [Example 32C]	human Nav1.8/b3 (Homo sapiens, UniProt Q9Y5Y9)	50 to 100 nM

Sample Cc1nc(F)ccc1Oc1ncc(C(F)F)c(C)c1C(=O)Nc1ccnc(S(C)(=N)=O)c1 (stereo not shown) [Example 48C] — what was its IC50?
> 200 nM

Tell me the measured IC50 of Cc1nc(F)ccc1Oc1ncc(C2CCCC2)c(C)c1C(=O)Nc1ccnc([S@](C)(=N)=O)c1 [Example 86C] , please.
5 to 50 nM

Consider the compound shown here: Cc1nc(F)ccc1Oc1ncc(C(F)(F)F)c(C)c1C(=O)Nc1ccnc([S@](C)(=N)=O)c1 (single isomer, unassigned) [Example 11C] What is its recorded IC50?
5 to 50 nM

For COc1c(Oc2cc(C(F)(F)F)nnc2C(=O)Nc2cccc([S+](C)[O-])c2)ccc(F)c1F (stereo not shown) [Example 30C] , what is its reported IC50?
> 200 nM
